Tested on: SR leukemia
measurement_notes: NCI-60 one-dose screen, 48 h (100 = growth as untreated, 0 = no growth, -100 = all killed)
protocol_conditions: 10 µM unless noted
About 83,000 compounds went through this panel and 20% of them were active in at least one assay; those are over-represented in the sample as a whole.
result_type: growth (%)
Give your result in % as a bare value.

// known answers, use as guide
COc1cc(C(=O)/C=C/c2cccnc2Nc2ccccc2)cc(OC)c1OC : 1.47
COc1ccc(C2CC(c3ccc(OC)c(OC)c3)=NN2C(=O)c2cc(OC)c(OC)c(OC)c2)cc1 (stereo not given) : 20.6
Cc1cc(C)n2nc(SCC(=O)Nc3sc4c(c3C(N)=O)CCC4)nc2n1 : 144
O=C(C(=O)N1CCOCC1)c1ccc(OC2OC(CO)C(O)C(O)C2O)cc1 (stereo not given) : 102
COC(=O)CCC1=C(C)C(C)=N/C1=C\c1[nH]c(-c2ccc[nH]2)cc1OC : -31.4

Returns the measured growth for the input compound. Input: CCCn1cnc2c1c(=O)n(CCCCC(C)=O)c(=O)n2C
87.5

Request the reported growth associated with COc1ccc2nc3cc(Cl)ccc3c(Nc3cc(C(C)C)c(O)cc3C)c2c1
16.9

What value of growth has been reported for the following compound? COc1cc(Oc2cc(-c3cccnc3)ccc2NC(=O)Nc2ccc(F)cc2F)cc(OC)c1OC
97.4

Can you share its growth? I mean this compound: COc1ccc(-c2c(-c3cc(OC)c(OC)c(OC)c3)noc2N)cc1
8.86

State the recorded growth for this entry: Cn1c(=O)c2c(nc(Br)n2CCC(=O)Nc2ccc(F)cc2)n(C)c1=O
107

---

Tested on: LOX IMVI melanoma
measurement_notes: NCI-60 one-dose screen, 48 h (100 = growth as untreated, 0 = no growth, -100 = all killed)
protocol_conditions: 10 µM unless noted
The panel holds about 83,000 compounds, 20% with a hit somewhere; the sample as a whole holds those more often.
Collected growth values appear next to each entry.
Note: unit % is implicit; provide only the numeric part.

# query: growth | item N=c1ccn2c(n1)O[C@@H]1[C@@H](O)[C@H](CO)O[C@@H]12 | system: LOX IMVI melanoma
67.9

What measured growth is associated with CCCCCCCCCCCCCCCCN=C(CC(=O)O)C(=O)O on LOX IMVI melanoma?
90.5

Reported growth for LOX IMVI melanoma, given O=C(/C(=C/c1cccc([N+](=O)[O-])c1)c1ccccc1)c1ccccc1 ?
10.7

Field: growth (LOX IMVI melanoma). Entry: O=C1NCN(CCO)CN1
103

Observed growth on LOX IMVI melanoma for N=C(N)/N=C(\CCc1nc2ccccc2[nH]1)c1nc2ccccc2[nH]1 , please.
85.4

Which measured growth belongs to Nc1c2ccccc2nc2ccccc12 (tested in a mixture with another compound) , tested on LOX IMVI melanoma?
4.92

---

Test system: OVCAR-5 ovarian
measurement_notes: NCI-60 one-dose screen, 48 h
protocol_conditions: 10 µM unless noted
About 83,000 compounds went through this panel and 20% of them were active in at least one assay; those are over-represented in the sample as a whole. Calls of active or inactive are those of the source. The calls were made as follows: active = growth percent below 10; inactive = the rest.
Give one outcome, nothing more. List: class 1 (active), class 0 (inactive)

Example entries begin here.
O=Nc1ccc(O)c(=O)cc1 : class 0
COC(=O)[C@]1(CCSC)N[C@H](c2cn(-c3ccccc3)nc2C)[C@@H]2C(=O)N(c3ccccc3)C(=O)[C@@H]21 : class 0
CN1CCCC1c1cccnc1 (stereo unspecified) : class 1
Nc1ccc(C2=Nc3cccc4cccc(c34)S2)cc1 : class 0
O=C(Nc1nc(-c2ccc(Cl)cc2)cs1)c1cc(O)c(O)c(O)c1 : class 0
COc1ccc2c(c1)[nH]c(=O)c1c3cc(OC)c(OC)cc3cn21 : class 0
C=CC1=C(C(=O)O)N2C(=O)[C@@H](NC(=O)/C(=N\O)c3csc(N)n3)[C@H]2SC1 (stereo in doubt) : class 0
CCN(CC)c1ccc(N=Nc2cc(Cl)ccc2Cl)c(NC(=O)CCC(=O)O)c1 : class 0
OC(Cc1cccnc1)c1ccccc1 (stereo unspecified) : class 0
Cc1cc(Cl)ccc1Nc1nc(C(F)(F)F)ccc1C(=O)NCC(=O)N/N=C/c1c(Cl)cccc1Cl : class 0

Outcome? O=[N+]([O-])c1ccc(Oc2cccc(C(F)(F)F)c2)c([N+](=O)[O-])c1
class 0
